Tested on: hsa-mir-221 loop
Experiment: normalised indicator fluorescence (fraction of RNA + indicator signal without compound); higher = less displacement of indicator (weaker competition)
Conditions: compound concentration: 5 uM; 30 min; indicator: TO-PRO-3 0.5 uM; RNA concentration: 0.5 uM
Experimental Endpoint: normalised indicator fluorescence
Could you respond with only the numeric value?

// solved cases for normalised indicator fluorescence follow
Entry `CNc1ccc([N+](=O)[O-])c(Nc2ccc3[nH]ncc3c2)n1` ; normalised indicator fluorescence = 1.15

// normalised indicator fluorescence lookup, molecule = `O=c1cc(-c2ccc(O)c(-c3c(O)cc(O)c4c(=O)cc(-c5ccc(O)cc5)oc34)c2)oc2cc(O)cc(O)c12` , result: 1.17

For `CC(C)OC(=O)CCC/C=C\C[C@@H]1[C@@H](CC[C@@H](O)CCc2ccccc2)[C@H](O)C[C@@H]1O` the molecule record lists normalised indicator fluorescence as 1.05

GET /value?item= `Cc1cc(C(C)(C)C)c(O)c(C(C)(C)C)c1` &field=normalised indicator fluorescence returns 1.12

***
Memo: `O=C(/C=C/C=C/c1ccc2c(c1)OCO2)N1CCCCC1` , reported normalised indicator fluorescence: 0.908

====

Test system: hsa-mir-6850 loop
Assay: normalised indicator fluorescence (fraction of RNA + indicator signal without compound); higher = less displacement of indicator (weaker competition)
Conditions: compound concentration: 5 uM; 30 min; indicator: TO-PRO-1 0.1 uM; RNA concentration: 0.1 uM
Counter-ions that a name gives are not always drawn.
Experimental Endpoint: normalised indicator fluorescence
Please give the numeric answer without any surrounding text.

Note to self: normalised indicator fluorescence of OC[C@H]1O[C@@H](Oc2ccc(O)cc2)[C@H](O)[C@@H](O)[C@@H]1O [Arbutin] with hsa-mir-6850 loop was 0.964

Shifting focus to the compound that follows.
normalised indicator fluorescence on hsa-mir-6850 loop for CCCC(C(=O)OCCN(CC)CC)(c1ccccc1)c1ccccc1 [Proadifen hydrochloride] is 0.941

====

System: hsa-mir-221 loop
Experiment: normalised indicator fluorescence (fraction of RNA + indicator signal without compound); higher = less displacement of indicator (weaker competition)
Conditions: compound concentration: 5 uM; 30 min; indicator: TO-PRO-1 0.1 uM; RNA concentration: 0.1 uM
Structures can show the parent of a compound that is named as a salt.
Y means recorded normalised indicator fluorescence is 1 or above; N means it is below 1.

Consider the following illustrative entries.
For this compound, is measured normalised indicator fluorescence 1 or higher? O=c1ccc2ccc(O)c(O)c2o1 [Daphnetin]
N

Decide: is the reported value of normalised indicator fluorescence for CC(C)c1cc(C(C)C)c(CC(=O)NS(=O)(=O)Oc2c(C(C)C)cccc2C(C)C)c(C(C)C)c1 [Avasimibe] equal to or greater than 1?
Y

Identify whether the reported normalised indicator fluorescence of the following compound is 1 or greater: O=c1c(O)c(-c2cc(O)c(O)c(O)c2)oc2cc(O)cc(O)c12 [Myricetin]
N

Further cases:
Does the reported normalised indicator fluorescence for C1CCN2C[C@@H]3C[C@@H](CN4CCCC[C@@H]34)[C@H]2C1 [(-)-Sparteine sulfate pentahydrate] fall at or above the 1 mark?
Y

Threshold query (normalised indicator fluorescence >= 1) on `Cc1cc(C(C)(C)C)c(O)c(C(C)(C)C)c1`
Y

====

Tested on: hsa-mir-374a loop
Test: normalised indicator fluorescence (fraction of RNA + indicator signal without compound); higher = less displacement of indicator (weaker competition)
Conditions: compound concentration: 5 uM; 30 min; indicator: TO-PRO-1 0.1 uM; RNA concentration: 0.1 uM
Where a name gives a salt, the structure may show the parent alone.
Experimental Endpoint: normalised indicator fluorescence
Answer using only a numeral; do not append any unit.

Examples from the recorded data:
Documented normalised indicator fluorescence of `COC(=O)C1=CC[C@@]23CC[C@@H]([C@@](C)(/C=C/C=C(\C)C(=O)O)OC2=O)[C@@]3(OC(C)=O)CC1` : 0.998

Noted for `O=c1ncn2nc(Sc3ccc(F)cc3F)ccc2c1-c1c(Cl)cccc1Cl` : its normalised indicator fluorescence reads 1.07

normalised indicator fluorescence reported for this compound `CC1=NN(c2ccccc2)C(=O)C1` : 1.06

Value of normalised indicator fluorescence reported for the compound `Cc1cccc(CC(=O)N2CCc3c2ccc(-c2cn(C)c4ncnc(N)c24)c3F)n1` is 1.14

Form: compound = C[S+]([O-])c1ccc(-c2nc(-c3ccc(F)cc3)c(-c3ccncc3)[nH]2)cc1 (centres undefined) ; normalised indicator fluorescence = 1.07

Further cases:
# compound `CC(C)N(CCCCOCC(=O)NS(C)(=O)=O)c1cnc(-c2ccccc2)c(-c2ccccc2)n1` ; its normalised indicator fluorescence = 1.14

Looking up `NNC(=O)c1ccncc1` , I see its normalised indicator fluorescence listed as 1.01

Entry O=C(O)/C=C/c1ccc(Cn2ccnc2)cc1 [Ozagrel hydrochloride] ; normalised indicator fluorescence = 1.07

Short answer for `O=c1cc(-c2ccccc2)oc2cc(O)c(O)c(O)c12` : normalised indicator fluorescence was 0.88
